Please go through the items and note down their folding stability dG unfold.
- ASSAY PROCEDURE: folding stability dG unfold from trypsin proteolysis; higher = more stable
I only need the number, in kcal/mol, no unit after it.

What folding stability dG unfold value was documented for this sequence, SAGGSAGGSAGEEEVEPPPEVVVRVRFFDKDGKEVLEVEMSLDELRALAEAGLVEVELEPSAGGSAGGSAGG [r11_159_TrROS_Hall] ?
2.97

Also SSEELRELILNEAAKLGVKIKEIKVKEDPSTNTVSIEITVPDGKVIKLSFTRTSDGGYSYDINELKAGLESA [r9_85_JUSTAS] , if possible.
5.35

Also SAGGSAGGSAGPSYIAVVEFENGERPVYLFPPNTGKLEDIVEELKKKFPSLKKITIYPAPSAGGSAGGSAGG [r11_311_TrMRF] , if possible.
3.58

Also SAGGSAGGSKPVLKITVTNEKGEKQTISLDELQAETGLSAEEIAARLAALLPPGAKITIEPVPSAGGSAGGS [r12_399_TrROS_Hall] , if possible.
1.81

* * *

- ASSAY PROCEDURE: folding stability dG unfold from trypsin proteolysis; higher = more stable
The threshold is inclusive: folding stability dG unfold of exactly 2 kcal/mol counts as Met; values below receive Not met.

Check the entry SAGGSAGGMSISTEQEGGKITVTDSSPGTPIAELPPDVEKEVETPVIPPPPPLYRLFLPGTVLVSAGGSAGG [r6_40_JUSTAS] : does folding stability dG unfold equal or exceed 2 kcal/mol?
Not met

Also SAMVIIRVENKDGKTIEIAIPVRNEDGKLTKEELEELAKRLAEELAEELGLEDVKVEVEVRPLSEEELKSAG [r14_378_TrROS_Hall] , if possible.
Not met

Also PKWYEMNITINLPPDDPQKVKELKDALKKRNPDYKVKDIQFNPDDGQITINVWMPPQDQNRFQKAIKELLGS [r1_443_TrROS] , if possible.
Not met

Also SAGKMKIISVKIENNTITIEIYKDGKKIKKIEIKKNKKKIIIKIEIEPGEEIKIKIEINGKTYEITIKPSAG [r5_533_TrROS_Hall] , if possible.
Met

Also SAGGSMPLTLEIKAPASTPASEIVATLKKYGPVTVTLGDGRTYNIPRDKPPNLKGLPLAPDAVLTLVVSAGG [r13_399_JUSTAS] , if possible.
Not met

Also SAGGSAGGVTINFPDGVTIMVDPGTGKIYIMNPNGYIFKFTIERKPNEWKLKIEPIKPIPPDDFSAGGSAGG [r6_324_TrROS] , if possible.
Met

Also SAGGSAGGSAGMPKRKITKIETEELPPELIRVTITLPDGTPVPVVVSPDDEEVKAIIEKLSAGGSAGGSAGG [r11_122_JUSTAS] , if possible.
Not met

Also SFNISVSVEPDDDKYKVTIWIQVDPEEFPGQPPTPSVIEEIARELARDWGIKEVEIEPPPNGYYRHTFPLSA [r9_883_TrROS] , if possible.
Not met

Also SAGGSATIEEIAQEIADNLPPGRKYRAKIYYDGEERTYEFRNPNGFKINITWKNGKIRSIDIEPRPSAGGSA [r15_175_TrROS] , if possible.
Not met

Also SAGGSAGGSATATVTPHEGAWTVTVTGPDSTETFTFEADEETVREFVELLKAPDVDIDPVPGSAGGSAGGSA [r18_103_TrMRF] , if possible.
Not met

Also SPSTTIPQTITLDTKLPNGKPATPEEVKAIAEEIVKKLEKEKGVKISINVKVTPVDSSGKYKLDITITIIKS [r1_231_JUSTAS] , if possible.
Met

Also SAGGSAGGEISFDPETGKLTILAPSSISPDAIKKAIEEAGIPFKITSVSYIPDPKTLKVEYEISSAGGSAGG [r6_395_TrMRF] , if possible.
Not met

Also SAGGSAFEEVKKKYPNAKWEKIGDEGDTAVYRLTFPGGEKILITVPTLPETDEPVVEVTYVPKGEESAGGSA [r15_547_JUSTAS] , if possible.
Met
